System: MCF7
Assay method text: Antiproliferative activity against estrogen-deficient human MCF7 cells after 72 hrs by MTT assay
Assay type: functional, cell-based
Test settings: MCF7, 72 h
Readout type: EC50 (pM)
One number for each entry, in pM.

# EC50 (compound: C[C@]12CC[C@@H]3c4ccc(O)cc4CC[C@H]3[C@@H]1CC[C@@H]2O [ESTRADIOL] ) is 6.4

----------
Test system: MCF7
Assay method text: Antiproliferative activity against estrogen-deficient human MCF7 cells at 1 uM after 72 hrs by MTT assay relative to untreated vehicle control
Type: functional
Readout type: Efficacy (%)
Give bare numbers, in %.

Some molecules with known Efficacy results, for comparison:
Structure notation: COc1ccc(-c2coc3cc(OC(=O)NCCBr)cc(O)c3c2=O)cc1
Efficacy (%): 151
--
Structure notation: COc1ccc(-c2coc3cc(O)cc(O)c3c2=O)cc1
Efficacy (%): 161
--
Structure notation: COc1ccc(-c2coc3cc(OC(=O)CCl)cc(O)c3c2=O)cc1
Efficacy (%): 152
--
Structure notation: COc1ccc(-c2coc3cc(OC(=O)CBr)cc(O)c3c2=O)cc1
Efficacy (%): 156
--
Structure notation: C[C@]12CC[C@@H]3c4ccc(O)cc4CC[C@H]3[C@@H]1CC[C@@H]2O
Efficacy (%): 185
--
Structure notation: CCCCCCCCCCCNC(=O)Oc1cc(O)c2c(=O)c(-c3ccc(OC)cc3)coc2c1
Efficacy (%): 117

Lab note: molecule `COc1ccc(-c2coc3cc(OC(=O)NCCCl)cc(O)c3c2=O)cc1` tested on MCF7; recorded Efficacy was 139
